target entity: LPO purified from bovine milk (Bos taurus, UniProt P80025)
Construct: from tissue; host or cells: fresh bovine milk
test name: LPO inhibition assay (ABTS oxidation by H2O2, absorbance at 412 nm; Lineweaver–Burk plots)
Format: biochemical
condition summary: LPO purified from bovine milk; Lineweaver–Burk plots, three inhibitor and five ABTS concentrations; Means ± SD
measured parameter: Ki (µM)

CC(=O)Oc1ccc(C(=O)Nc2ccc(S(=O)(=O)Nc3ccccn3)cc2)cc1 [5d, N-(sulfapyridine)-p-acetoxybenzamide] :: 49.1
CC(=O)Oc1cc(C(=O)Nc2ccc(S(=O)(=O)Nc3ccccn3)cc2)cc(OC(C)=O)c1OC(C)=O :: 1.39
NS(=O)(=O)c1ccc(NC(=O)c2cc(O)c(O)c(O)c2)cc1 :: 3.1

A = Cc1nnc(NS(=O)(=O)c2ccc(N)cc2)s1 [4f, Sulfamethizole, reference compound]
B = O=C(Nc1ccc(S(=O)(=O)Nc2ncccn2)cc1)c1cc(O)c(O)c(O)c1
C = Nc1ccc(S(N)(=O)=O)cc1 [4h, Sulfanilamide, reference compound]
Q: Arrange by Ki, high to low. Answer format: list of labels, ordered as asked.
Ans: C, A, B
(C: 35.7 µM, A: 21.2 µM, B: 1.29 µM)

A = O=C(Nc1ccc(S(=O)(=O)Nc2ccccn2)cc1)c1ccc(O)cc1 [7d, N-(sulfapyridine)-p-hydroxybenzamide]
B = Cc1nnc(NS(=O)(=O)c2ccc(NC(=O)c3ccc(O)cc3)cc2)s1 [7f, N-(sulfamethizole)-p-hydroxybenzamide]
C = Cc1noc(NS(=O)(=O)c2ccc(NC(=O)c3ccc(O)cc3)cc2)c1C [7e, N-(sulfisoxazole)-p-hydroxybenzamide]
D = Cc1noc(NS(=O)(=O)c2ccc(N)cc2)c1C [4e, Sulfisoxazole, reference compound]
E = CC(=O)Oc1cc(C(=O)Nc2ccc(S(=O)(=O)Nc3nnc(C)s3)cc2)cc(OC(C)=O)c1OC(C)=O
Q: List the 5 entries from lowest Ki to highest Ki value. API: response body holds the labels in the requested order.
Ans: B, A, E, C, D

I = O=C(Nc1ccc(S(=O)(=O)Nc2nccs2)cc1)c1ccc(O)cc1 [7a, N-(sulfathiazole)-p-hydroxybenzamide]
II = CC(=O)Oc1cc(C(=O)Nc2ccc(S(=O)(=O)Nc3nccc(C)n3)cc2)cc(OC(C)=O)c1OC(C)=O
III = CC(=O)Oc1cc(C(=O)Nc2ccc(S(=O)(=O)Nc3nc(C)cc(C)n3)cc2)cc(OC(C)=O)c1OC(C)=O
IV = CC(=O)Oc1cc(C(=O)Nc2ccc(S(=O)(=O)Nc3nccs3)cc2)cc(OC(C)=O)c1OC(C)=O
V = CC(=O)Oc1cc(C(=O)Nc2ccc(S(N)(=O)=O)cc2)cc(OC(C)=O)c1OC(C)=O
Q: Sort low-to-high on Ki, please. // rank by listing labels in the order requested
Ans: IV, II, V, I, III

I = O=C(Nc1ccc(S(=O)(=O)Nc2nccs2)cc1)c1cc(O)c(O)c(O)c1
II = Cc1cc(C)nc(NS(=O)(=O)c2ccc(N)cc2)n1 [4c, Sulfamethazine, reference compound]
Q: Form field 'greater Ki' accepts I or II ; which applies? Please identify the chosen entry by its label.
Ans: II

a = O=C(Nc1ccc(S(=O)(=O)Nc2ccccn2)cc1)c1cc(O)c(O)c(O)c1
b = Nc1ccc(S(=O)(=O)Nc2ccccn2)cc1 [4d, Sulfapyridine, reference compound]
c = NS(=O)(=O)c1ccc(NC(=O)c2ccc(O)cc2)cc1 [7h, N-(sulfanilamide)-p-hydroxybenzamide]
d = Cc1nnc(NS(=O)(=O)c2ccc(NC(=O)c3cc(O)c(O)c(O)c3)cc2)s1
e = O=C(Nc1ccc(S(=O)(=O)Nc2ncccn2)cc1)c1ccc(O)cc1 [7b, N-(sulfadiazine)-p-hydroxybenzamide]
Q: Order the items by recorded Ki; the first position goes to the largest value. Please, when replying, give the labels in the order that was requested.
Ans: d, b, a, c, e
(d: 293 µM, b: 65 µM, a: 5.85 µM, c: 0.217 µM, e: 0.044 µM)

P = Cc1ccnc(NS(=O)(=O)c2ccc(NC(=O)c3ccc(O)cc3)cc2)n1 [7g, N-(sulfamerazine)-p-hydroxybenzamide]
Q = Nc1ccc(S(=O)(=O)Nc2ncccn2)cc1 [4b, Sulfadiazine, reference compound]
Q: Endpoint returns the identifier whose Ki is numerically larger, either P or Q . In your reply, give the label of the chosen option.
Ans: Q
